Value source: patent US20210230570

TARGET_OF_ASSAY: Factor X (FX), P00742
Sequence (P00742 whole entry, looked up): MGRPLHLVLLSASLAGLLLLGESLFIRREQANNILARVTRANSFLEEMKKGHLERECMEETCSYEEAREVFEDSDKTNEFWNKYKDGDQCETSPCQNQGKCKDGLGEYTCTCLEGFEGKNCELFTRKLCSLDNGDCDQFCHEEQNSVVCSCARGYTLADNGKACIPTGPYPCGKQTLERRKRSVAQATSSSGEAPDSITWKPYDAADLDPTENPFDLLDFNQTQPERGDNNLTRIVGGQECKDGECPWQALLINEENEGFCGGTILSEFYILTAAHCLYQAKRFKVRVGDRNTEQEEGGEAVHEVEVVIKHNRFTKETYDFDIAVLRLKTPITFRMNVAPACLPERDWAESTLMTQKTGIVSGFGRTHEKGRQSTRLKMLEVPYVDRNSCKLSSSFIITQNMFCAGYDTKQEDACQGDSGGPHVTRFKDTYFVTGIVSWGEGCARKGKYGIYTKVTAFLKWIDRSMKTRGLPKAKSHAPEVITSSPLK
MEASURED_PARAMETER: kcat of FX activation by FIXa in the Xase complex (FVIIIa, PC/PS vesicles, Ca2+) (s⁻¹)

PROTEIN: FIXa-K228N/I251S/R318Y/R338E/R403E/E410N (protein) chain 1: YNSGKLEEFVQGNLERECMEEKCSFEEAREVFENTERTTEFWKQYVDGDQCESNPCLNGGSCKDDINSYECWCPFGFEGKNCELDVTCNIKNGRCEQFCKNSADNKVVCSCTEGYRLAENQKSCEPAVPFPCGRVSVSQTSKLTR chain 2: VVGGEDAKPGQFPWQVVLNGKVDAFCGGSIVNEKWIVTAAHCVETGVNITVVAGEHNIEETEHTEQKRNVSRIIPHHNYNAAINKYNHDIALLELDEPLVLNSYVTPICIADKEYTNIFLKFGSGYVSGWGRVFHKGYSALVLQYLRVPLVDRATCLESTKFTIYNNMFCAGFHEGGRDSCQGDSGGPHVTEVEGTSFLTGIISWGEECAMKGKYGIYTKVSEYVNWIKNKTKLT
U: s⁻¹
RECORDED_VALUE: 7.5
